- assay_notes: RPMI8226 myeloma cell viability, profiling panel, resazurin fluorescence, basal, 24 h, PK04 Diversity Set (AID 1180);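 further: RPMI8826 multiple myeloma cell line at 5000 cells per well; test concentration not given here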
- experimental_parameters: higher = more signal
Label Satisfied when z-score is at or above -0.7; otherwise label Not satisfied.

{"line_notation": "CC(C)N1C(=O)[C@@]2(c3ccc([N+](=O)[O-])cc3)CC(=O)N(C3CCCCC3)[C@@H]2c2ccc(CO)cc21", "label_value": "Satisfied"}
{"line_notation": "CCOC(=O)C[C@H]1[C@H](OC(=O)Cc2ccc3c(c2)OCO3)[C@@H](NC(=O)Cc2ccc(OC)cc2)c2cc(OCCCO)ccc2N1C(=O)c1ccccc1", "label_value": "Satisfied"}
{"line_notation": "COc1cc(CO)cc(I)c1O[C@H]1C=C(C(=O)NCCO)C[C@@H](NCc2ccccc2F)[C@@H]1O", "label_value": "Satisfied"}
{"line_notation": "COCCOC(=O)N1C(=O)[C@@]2(c3cc(C#Cc4ccc(OC)cc4)ccc31)[C@H](C(=O)NC[C@H](O)c1ccccc1)[C@H]1C(=O)O[C@H](c3ccccc3)[C@H](c3ccccc3)N1[C@@H]2c1ccc(O)cc1", "label_value": "Not satisfied"}
{"line_notation": "CC(=O)NCCCC[C@@H]1NC(=O)[C@@H]2C[C@H](C(=O)O)[C@H](c3ccc(O)cc3)N2C1=O", "label_value": "Satisfied"}
{"line_notation": "C[C@H]1ON(c2ccc(C(=O)OC(C)(C)C)cc2)[C@@H](c2ccc(O)cc2)[C@@H]1C(=O)N1C(=O)OC[C@@H]1c1ccccc1", "label_value": "Not satisfied"}
{"line_notation": "CN(C)C(=O)[C@]1(CCC(=O)OC(C)(C)C)N=C(c2ccc(OCCCO)cc2)O[C@@H]1c1ccccc1", "label_value": "Satisfied"}
{"line_notation": "COCCOC(=O)N1C(=O)[C@@]2(c3cc(C#CCC(C(=O)OC)C(=O)OC)ccc31)[C@H](c1ccc(OCCO)cc1)N1[C@H](c3ccccc3)[C@H](c3ccccc3)OC(=O)[C@H]1[C@@H]2C(=O)N1CCN(c2ncccn2)CC1", "label_value": "Satisfied"}
{"line_notation": "COC(=O)[C@@]1(Cc2ccc(OC)cc2)[C@H]2c3cc(C(=O)N(C)C)n(Cc4nc5ccccc5[nH]4)c3C[C@H]2CN1C(=O)c1ccccc1", "label_value": "Not satisfied"}
{"line_notation": "COCCOC(=O)N1C(=O)[C@@]2(c3cc(C#CC4(O)CCCCCC4)ccc31)[C@H](C(N)=O)[C@H]1C(=O)O[C@H](c3ccccc3)[C@H](c3ccccc3)N1[C@@H]2c1ccccc1OCCO", "label_value": "Not satisfied"}
{"line_notation": "CC(C)(C)OC(=O)CC[C@]1(C(=O)NCCN2CCOCC2)N=C(c2ccc(OCCCO)cc2)O[C@H]1c1ccccc1N=[N+]=[N-]", "label_value": "Satisfied"}

----------
- assay_notes: fission yeast growth modulation, primary screen, strain 972, OD600, 24 h, no modulator (AID 1090);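 further: basal condition with compound alone and no growth modifier present; test concentration not given here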
- experimental_parameters: S. pombe 972 growth, called active from +8 up or from −8 down
Calls of active or inactive are those of the source.
Possible outcomes: true = active, false = inactive

{"line_notation": "Cc1ccc(F)cc1S(=O)(=O)N[C@@H]1CCN(Cc2ccc(OC(C)C)cc2)C1", "label_value": "true"}
{"line_notation": "C=C(COC)/C(=C/C[C@@H](OC(=O)c1ccncc1)c1cccc(OCCO)c1)c1cnc2ccccc2c1", "label_value": "true"}
{"line_notation": "CCOC(=O)C[C@H]1[C@H](OC(=O)c2ccc(-c3ccccc3)cc2)[C@@H](NC(=O)C2CCCCC2)c2cc(OCCCO)ccc2N1C(=O)c1ccccc1", "label_value": "false"}
{"line_notation": "C=CC[C@]12N=C(c3ccc(OCCCO)cc3)O[C@H]1c1ccccc1N(C)C2=O", "label_value": "false"}
